Recorded AUC by entry
Tested on: MDA-MB-453 cells
Assay: Resazurin-based cell viability assay, monotherapy drug screen
Parameters: species or system human
Settings: MDA-MB-453; area under the dose response curve, 24 h
Residues, ends and D or L forms follow the SMILES beside them. *: point of attachment. Cbz = O=C(OCc1ccccc1)*
No unit in the answer, please; the number alone is enough.

Example entries begin here.
CC(C)C[C@@H](C=O)NC(=O)[C@H](CC(C)C)NC(=O)[C@H](CC(C)C)NC(=O)OCc1ccccc1 [MG 132, MG-132] (Cbz-Leu-Leu-Leu-aldehyde)	0.87
N.N.O=C([O-])C1(C(=O)[O-])CCC1.[Pt+2]	0.98
CC(C)C[C@H](NC(=O)[C@@H](NC(=O)c1cccc(-c2ccccc2)n1)[C@@H](C)O)B(O)O	0.76

**Query** Requested field: AUC. Item: [NH2][Pt]1([NH2])[O]CC(=O)[O]1
**Result** 0.86

**Query** Requested field: AUC. Item: O=[N+]([O-])c1ccc(S(=O)(=O)N2CCN(c3ccnc4cc(Cl)ccc34)CC2)c([N+](=O)[O-])c1
**Result** 0.99

**Query** Requested field: AUC. Item: CCCc1ccc(OCC(=O)N(Cc2nc(-c3cccnc3)no2)C(C)C)cc1
**Result** 1.0
